experiment: xn = mol fraction of the nth substance listed, in the solute-free solvent; settings: 298.15 K; x2 = 0.1139
Property Measured: solubility (g/100 g solution)

Compound	Property Measured	Observed Value
CN1CCC(N(Cc2cccs2)c2ccccc2)CC1 + CCCO + O	solubility (g/100 g solution)	0.943
CN1CCC(N(Cc2cccs2)c2ccccc2)CC1 + CC(C)O + O	solubility (g/100 g solution)	0.746
Nc1cccc2ccncc12 + CCCO + O	solubility (g/100 g solution)	0.506
Nc1cccc2ccncc12 + CC(C)O + O	solubility (g/100 g solution)	0.405
Cc1ccc2cc(Br)ccc2n1 + CC(C)O + O	solubility (g/100 g solution)	0.446
